Where do these numbers come from? They come from patent US12637481B2.

assay: Serum activation of prodrug, human serum; type: in vitro ADME; settings: 50 μg/mL in human serum, room temperature, 1 hour, assayed for active drug by LC/MS/MS
Reported half-life at 50 μg/mL by item:
Experimental readout: half-life at 50 μg/mL

- CCCC(=O)OCOC(=O)c1c(F)ccc2c1OB(O)[C@@H]1C[C@H]21: > 1 h
- CC(C)C(=O)OCOC(=O)c1c(F)ccc2c1OB(O)[C@@H]1C[C@H]21: > 1 h
- CC(=O)OCOC(=O)c1c(F)ccc2c1OB(O)[C@@H]1C[C@H]21: > 1 h

---

experiment: Microsomal activation of prodrug, dog liver microsomes; type: in vitro ADME; details: 1 μM in dog liver microsomes, room temperature, assayed for active drug by LC/MS/MS
Experimental readout: half-life at 1 μM (min)

- CC(C)C(=O)OCOC(=O)c1c(F)ccc2c1OB(O)[C@@H]1C[C@H]21 [Compound II]: 23
- CCCC(=O)OCOC(=O)c1c(F)ccc2c1OB(O)[C@@H]1C[C@H]21 [Compound 1]: 11
